studyTarget: human recombinant adrenergic α2A receptor (Homo sapiens, UniProt P08913)
Construct: expressed in transfected cells; host or cells: insect Sf9 cells
Sequence (P08913 1-465): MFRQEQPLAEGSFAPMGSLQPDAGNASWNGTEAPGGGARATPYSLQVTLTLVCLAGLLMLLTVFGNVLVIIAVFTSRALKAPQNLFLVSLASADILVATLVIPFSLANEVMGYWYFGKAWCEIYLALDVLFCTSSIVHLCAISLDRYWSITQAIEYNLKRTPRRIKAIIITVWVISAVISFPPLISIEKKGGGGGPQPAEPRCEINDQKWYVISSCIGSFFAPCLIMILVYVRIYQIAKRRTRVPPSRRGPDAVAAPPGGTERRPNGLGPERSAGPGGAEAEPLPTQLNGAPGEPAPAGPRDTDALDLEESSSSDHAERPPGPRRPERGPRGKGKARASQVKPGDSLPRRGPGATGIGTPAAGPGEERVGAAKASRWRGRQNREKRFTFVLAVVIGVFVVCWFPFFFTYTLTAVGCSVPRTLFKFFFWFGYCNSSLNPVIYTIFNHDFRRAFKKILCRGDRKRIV
assayName: Adrenergic α2A radioligand binding ([3H]MK-912)
Parameters: concentration or dose not given beside the values
conditionLabel: percent inhibition of specific binding
Items are presented alongside their recorded Inhibition of ligand binding, Adren. alpha2A.
valueType: Inhibition of ligand binding, Adren. alpha2A (%)

{"molecule": "CCCc1ccc(CCn2c3c(c4cc(Cl)ccc42)CN(C)CC3)cn1 [Compound 476]", "studyTarget": "human recombinant adrenergic α2A receptor (Homo sapiens, UniProt P08913)", "unitTag": "%", "observedMeasurement": 87}
{"molecule": "Cc1ccc2c(c1)c1c(n2Cc2ccc(C)nc2)CCN(C)C1 [Compound 139]", "studyTarget": "human recombinant adrenergic α2A receptor (Homo sapiens, UniProt P08913)", "unitTag": "%", "observedMeasurement": 50}
{"molecule": "CCOC(=O)N1CCc2c(c3cc(Br)ccc3n2CCc2ccc(C)nc2)C1 [Compound 18]", "studyTarget": "human recombinant adrenergic α2A receptor (Homo sapiens, UniProt P08913)", "unitTag": "%", "observedMeasurement": "−10"}
{"molecule": "Cc1ccc2c(c1)c1c(n2CCc2ccccc2)CCN(C(=O)OCC(Cl)(Cl)Cl)C1 [Compound 227]", "studyTarget": "human recombinant adrenergic α2A receptor (Homo sapiens, UniProt P08913)", "unitTag": "%", "observedMeasurement": 0}
{"molecule": "Cc1ccc2c(c1)c1c(n2CCc2ccc(CO)nc2)CCN(C)C1 [Compound 267]", "studyTarget": "human recombinant adrenergic α2A receptor (Homo sapiens, UniProt P08913)", "unitTag": "%", "observedMeasurement": 49}
{"molecule": "CC(C)c1ccc2c(c1)c1c(n2CCc2ccc(C(F)(F)F)nc2)CCN(C)C1 [Compound 342]", "studyTarget": "human recombinant adrenergic α2A receptor (Homo sapiens, UniProt P08913)", "unitTag": "%", "observedMeasurement": 94}
{"molecule": "Cc1ccc2c(c1)c1c(n2CCc2ccc(OC(C)(C)C)cc2)CCN(C)C1 [Compound 335]", "studyTarget": "human recombinant adrenergic α2A receptor (Homo sapiens, UniProt P08913)", "unitTag": "%", "observedMeasurement": 31}
{"molecule": "CN1CCc2c(c3cc(Cl)ccc3n2CC(=O)N2CCCC2)C1 [Compound 243]", "studyTarget": "human recombinant adrenergic α2A receptor (Homo sapiens, UniProt P08913)", "unitTag": "%", "observedMeasurement": 3}
{"molecule": "CCOC(=O)N1CCc2c(c3cc(C)ccc3n2CCc2ccccc2)C1 [Compound 24]", "studyTarget": "human recombinant adrenergic α2A receptor (Homo sapiens, UniProt P08913)", "unitTag": "%", "observedMeasurement": 7}
{"molecule": "Cc1ccc2c(c1)c1c(n2CCc2ccccc2)CC(O)N(C)C1=O (stereo not shown) [Compound 215]", "studyTarget": "human recombinant adrenergic α2A receptor (Homo sapiens, UniProt P08913)", "unitTag": "%", "observedMeasurement": 23}
{"molecule": "Cc1ccc2c(c1)c1c(n2CC(=O)N2CCCC2)CCN(C)C1 [Compound 257]", "studyTarget": "human recombinant adrenergic α2A receptor (Homo sapiens, UniProt P08913)", "unitTag": "%", "observedMeasurement": "−4"}
{"molecule": "CCN1CCc2c(c3ccccc3n2CCc2ccccn2)C1 [Compound 6]", "studyTarget": "human recombinant adrenergic α2A receptor (Homo sapiens, UniProt P08913)", "unitTag": "%", "observedMeasurement": 20}
{"molecule": "CN1CCc2c(c3ccccc3n2CCc2ccncc2)C1 [Compound 10]", "studyTarget": "human recombinant adrenergic α2A receptor (Homo sapiens, UniProt P08913)", "unitTag": "%", "observedMeasurement": 33}
{"molecule": "Cc1ccc2c(c1)c1c(n2CC(=O)N2CCN(C)CC2)CCN(C)C1 [Compound 459]", "studyTarget": "human recombinant adrenergic α2A receptor (Homo sapiens, UniProt P08913)", "unitTag": "%", "observedMeasurement": "−9"}
{"molecule": "Cc1ccc2c(c1)c1c(n2CCc2cncc(Cl)c2)CCN(C)C1 [Compound 443]", "studyTarget": "human recombinant adrenergic α2A receptor (Homo sapiens, UniProt P08913)", "unitTag": "%", "observedMeasurement": 87}
{"molecule": "CN1CCc2c(c3cc(Cl)ccc3n2CCC(=O)N2CCOCC2)C1 [Compound 328]", "studyTarget": "human recombinant adrenergic α2A receptor (Homo sapiens, UniProt P08913)", "unitTag": "%", "observedMeasurement": 45}
{"molecule": "CCc1ccc2c(c1)c1c(n2CCc2ccc(C(F)(F)F)nc2)CCN(C)C1 [Compound 358]", "studyTarget": "human recombinant adrenergic α2A receptor (Homo sapiens, UniProt P08913)", "unitTag": "%", "observedMeasurement": 96}
{"molecule": "CCN1CCc2c(c3ccccc3n2CCc2ccc(C)cc2)C1 [Compound 3]", "studyTarget": "human recombinant adrenergic α2A receptor (Homo sapiens, UniProt P08913)", "unitTag": "%", "observedMeasurement": 86}
{"molecule": "Cc1ccc2c(c1)c1c(n2CCN2CCCC2)CCN(C)C1 [Compound 221]", "studyTarget": "human recombinant adrenergic α2A receptor (Homo sapiens, UniProt P08913)", "unitTag": "%", "observedMeasurement": 37}
{"molecule": "COc1ccc(CCn2c3c(c4cc(Cl)ccc42)CN(C)CC3)cc1F [Compound 337]", "studyTarget": "human recombinant adrenergic α2A receptor (Homo sapiens, UniProt P08913)", "unitTag": "%", "observedMeasurement": 97}
{"molecule": "Cc1ccc(CCn2c3c(c4cc(C(=O)O)ccc42)CNCC3)cn1 [Compound 274]", "studyTarget": "human recombinant adrenergic α2A receptor (Homo sapiens, UniProt P08913)", "unitTag": "%", "observedMeasurement": 7}
{"molecule": "Cc1ccc(Cn2c3c(c4ccccc42)CN(C)CC3)cn1 [Compound 17]", "studyTarget": "human recombinant adrenergic α2A receptor (Homo sapiens, UniProt P08913)", "unitTag": "%", "observedMeasurement": 56}
{"molecule": "CN1CCc2c(c3cc(OC(F)(F)F)ccc3n2CCc2ccc(C(F)(F)F)nc2)C1 [Compound 341]", "studyTarget": "human recombinant adrenergic α2A receptor (Homo sapiens, UniProt P08913)", "unitTag": "%", "observedMeasurement": 36}
{"molecule": "Cc1ccc2c(c1)c1c(n2CC(=O)N2CCCCC2)CCN(C)C1 [Compound 395]", "studyTarget": "human recombinant adrenergic α2A receptor (Homo sapiens, UniProt P08913)", "unitTag": "%", "observedMeasurement": 4}
{"molecule": "CN1CCc2c(c3cc(Cl)ccc3n2CCc2cccnc2)C1 [Compound 55]", "studyTarget": "human recombinant adrenergic α2A receptor (Homo sapiens, UniProt P08913)", "unitTag": "%", "observedMeasurement": 86}
{"molecule": "CCN1CCc2c(c3cc(C)ccc3n2CCc2ccc(C)nc2)C1 [Compound 31]", "studyTarget": "human recombinant adrenergic α2A receptor (Homo sapiens, UniProt P08913)", "unitTag": "%", "observedMeasurement": 66}
{"molecule": "Cc1ccc(CCn2c3c(c4cc(CO)ccc42)CN(C)CC3)cn1 [Compound 263]", "studyTarget": "human recombinant adrenergic α2A receptor (Homo sapiens, UniProt P08913)", "unitTag": "%", "observedMeasurement": 34}
{"molecule": "CCN1CCc2c(c3cc(C)ccc3n2CCc2ccncc2)C1 [Compound 27]", "studyTarget": "human recombinant adrenergic α2A receptor (Homo sapiens, UniProt P08913)", "unitTag": "%", "observedMeasurement": 53}
